# target under test: UniProtKB P43403
# Sequence (P43403 whole entry, looked up): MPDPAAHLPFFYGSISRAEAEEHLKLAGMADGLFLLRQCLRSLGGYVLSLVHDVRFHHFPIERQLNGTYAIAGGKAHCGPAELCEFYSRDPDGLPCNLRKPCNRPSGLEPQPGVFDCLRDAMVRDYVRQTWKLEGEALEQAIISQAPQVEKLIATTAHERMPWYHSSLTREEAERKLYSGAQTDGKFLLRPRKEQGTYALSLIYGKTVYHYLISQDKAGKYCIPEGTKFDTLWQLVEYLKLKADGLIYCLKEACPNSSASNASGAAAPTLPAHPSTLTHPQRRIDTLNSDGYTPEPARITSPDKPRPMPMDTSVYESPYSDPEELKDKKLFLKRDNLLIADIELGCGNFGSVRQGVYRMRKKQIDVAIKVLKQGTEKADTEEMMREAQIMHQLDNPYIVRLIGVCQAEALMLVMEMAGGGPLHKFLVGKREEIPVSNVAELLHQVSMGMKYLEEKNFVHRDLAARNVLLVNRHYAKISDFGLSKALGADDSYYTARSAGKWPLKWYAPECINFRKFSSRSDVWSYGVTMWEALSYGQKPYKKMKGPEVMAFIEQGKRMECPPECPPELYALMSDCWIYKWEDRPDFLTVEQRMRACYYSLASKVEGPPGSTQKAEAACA
# protocol description: radiometric filter-binding kinase assay
# condition label: compound 1.0 µM
residual activity listing for selected molecules.

| molecule | target under test | residual activity / % |
| --- | --- | --- |
| COc1cc(C(=O)N2CCOCC2)c(F)cc1Nc1ncc(C(F)(F)F)c(NC2CC2)n1 | UniProtKB P43403 | 88 |
| Nc1cccc2c1CN(C1CCC(=O)NC1=O)C2=O (centres undefined) | UniProtKB P43403 | 110 |
| C=C1C(=O)OC2C1CC/C(C)=C/CCC1(C)OC21 (centres undefined) | UniProtKB P43403 | 99 |
| COc1cc(O)c2c(c1)/C=C/C[C@H](O)[C@H](O)C(=O)/C=C\C[C@H](C)OC2=O | UniProtKB P43403 | 96 |
| O=C(Nc1cccnc1)c1cc(-c2ccnc(F)c2)ccc1OCc1ccccc1 | UniProtKB P43403 | 103 |
| C=CC(=O)N1CCC[C@@H](n2nc(-c3ccc(Oc4ccccc4)cc3)c3c(N)ncnc32)C1 | UniProtKB P43403 | 107 |
| NCC(=O)Nc1ccc(-n2nc(C(F)(F)F)cc2-c2ccc3c(ccc4ccccc43)c2)cc1 | UniProtKB P43403 | 84 |
| CNC(=O)C1[C@H]2O[C@@](C)([C@@H]1N)n1c3ccccc3c3c4c(c5c6ccccc6n2c5c31)C(=O)NC4 (some centres undefined) | UniProtKB P43403 | 2 |
| COc1ccc(N(C(=O)Nc2c(C)cccc2C)c2cc(Nc3ccc(N4CCN(C)CC4)cc3)ncn2)c(OC)c1 | UniProtKB P43403 | 94 |
